- System: 653999-131-R-J2-PDC complex spheroids, growth inhibition;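 note: spheroids exposed to the agents for seven days before the readout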
- PROCEDURE DETAILS: Anticancer human tumor 653999-131-R-J2-PDC patient-derived lung adenocarcinoma cell line growth inhibition [RAS]
- TEST CONDITIONS: second compound 0.316 µM; first compound 0.01 µM; active compounds read low
- From the text: RAS pathway inhibitors in Combinations in Complex Spheroids A high-throughput screen of multi-cell type tumor spheroids was designed to identify active combinations of RAS pathway inhibitors and targeted small molecules. Complex spheroids include a stromal component modeled by human endothelial cells (HUVEC) and fibroblasts modeled by human mesenchymal stem cells (MSCs). […] Compounds. […] If the clinical Cmax for an agent had not been determined, the highest concentration tested was 10 microM. […]

COMPOUND	viability, T/C (%)
Nc1ccn(C2OC(CO)C(O)C2(F)F)c(=O)n1 (stereo not given) + C=CC(=O)N1CCN(c2nc(OCC3CCCN3C)nc3c(F)c(-c4nc(N)cc(C)c4C(F)(F)F)c(Cl)cc23)C(C)C1	80.4
O=C(c1ccc(F)c(F)c1Nc1ccc(I)cc1F)N1CC(O)([C@@H]2CCCCN2)C1 + C#Cc1c(F)ccc2cc(O)cc(-c3ncc4c(N5CC6CCC(C5)N6)nc(OCC56CCCN5CC(F)C6)nc4c3F)c12	60.1
CC(C)n1nc(-c2ccc3oc(N)nc3c2)c2c(N)ncnc21 + C=CC(=O)N1CCN(c2nc(OCC3CCCN3C)nc3c(F)c(-c4nc(N)cc(C)c4C(F)(F)F)c(Cl)cc23)C(C)C1	51.1
C=CC(=O)Nc1cc(Nc2nccc(-c3cn(C)c4ccccc34)n2)c(OC)cc1N(C)CCN(C)C + C=CC(=O)N1CCN(c2nc(OCC3CCCN3C)nc3c(F)c(-c4nc(N)cc(C)c4C(F)(F)F)c(Cl)cc23)C(C)C1	107
C=CC(=O)Nc1cc(Nc2nccc(-c3cn(C)c4ccccc34)n2)c(OC)cc1N(C)CCN(C)C + C#Cc1c(F)ccc2cc(O)cc(-c3ncc4c(N5CC6CCC(C5)N6)nc(OCC56CCCN5CC(F)C6)nc4c3F)c12	95
